Catalogue of pKd readings, one per entry.
# assay.target: DN-III quality control recombinant protein (produced by Fapon Biotech InC.) (dengue virus)
# assay.protocol: BLI, AMC sensor, antibody captured
Answer as the number alone; pKd is minus log10 of concentration in mol/L.

Worked set:
binder | outcome.measure | readout.number
Mutation 1-33 (antibody, V domains shown) VH: EVQLQQSGTELVRPGALVKLSCKASGFNIKDYYVHWVKQRPRQGLEWIGWIDPENGKTLYDPKFQDKASITSDTSTNTAYLQLRSLTSEDTAVYYCVTAYYRFVYWGQGTLVTVSA VL: QIVLTQSPAIMSAFPGERVTMTCSASTSVRYMYWHQQKPGSSPRLLIYDTSNIASGVPVRFSGSGSGTSYSLTISRDEAMDAATYYCQQWSSYPRTFGGGTKLEIKR | pKd | 9.00
Mutation 1-12 (antibody, V domains shown) VH: EVQLQQSGTELVRPGALVKLSCKASGFNIKDYYVHWVKQRPRQGLEWIGWIDPENGKTLYDPKFQDKASITSDTSTNTAYLQLRSLTSEDTAVYYCVTAYFRFVYWGQGTLVTVSA VL: QIVLTQSPAIMSAFPGERVTMTCSASTSVRYMYWHQQKPGSSPRLLIYDTSNIASGVPVRFSGSGSGTSYSLTISRDEAMDAATYYCQQWSSTPRTFGGGTKLEIKR | pKd | 8.96

Now let's try a different one.
Incoming: Complete the entry with pKd for Mutation 1-22 (antibody, V domains shown) VH: EVQLQQSGTELVRPGALVKLSCKASGFNIKDYYIHWVKQRPRQGLEWIGWIDPENGKTLYDPKFQDKASITSDTSTNTAYLQLRSLTSEDTAVYYCVSAYYRFVYWGQGTLVTVSA VL: QIVLTQSPAIMSAFPGERVTMTCSASTSVRYMYWHQQKPGSSPRLLIYDTSNLASGVPVRFSGSGSGTSYSLTISRDEAMDAATYYCQQWSSFPRTFGGGTKLEIKR
Outgoing: 9.06
